conditions: buffer; pH 7.4; 200.0 µM
recordedMetric: solubility kinetic (µg/mL)
Give just the number in µg/mL; leave the unit off.

These recorded examples may help you get a feel for the data.
{"compound": "Cc1cccc(OCC(=O)Nc2ccc(NC(=O)c3ccco3)c(C)c2)c1", "recordedMetric": "solubility kinetic", "observedResult": 4.4}
{"compound": "CN(c1ccccc1)S(=O)(=O)c1cccc(C(=O)NC2CCCC2)c1", "recordedMetric": "solubility kinetic", "observedResult": 47.3}
{"compound": "CCN(CC)c1ccc(CNc2ccc3c(c2)ncn3CC)cc1", "recordedMetric": "solubility kinetic", "observedResult": 21.9}
{"compound": "Cc1cc(NC(=O)OC2CCCCC2)ccc1[N+](=O)[O-]", "recordedMetric": "solubility kinetic", "observedResult": 0.4}
{"compound": "Cc1nc(Nc2ccccc2)sc1C(=O)Nc1ccccc1", "recordedMetric": "solubility kinetic", "observedResult": 1.6}

For the compound shown here, COc1ccc(CCNC(=O)c2ccc(Br)cc2)cc1 , give the reported solubility kinetic.
1.3

Return reported solubility kinetic; argument: CC(=O)N1CCN(c2ccc(NC(=O)c3ccccc3C)cc2)CC1
36.8

###

settings: buffer; pH 7.4; 200.0 µM
recordedMetric: log10 solubility kinetic (log10 of the value in µg/mL)
Note the log scale: values are log10 of solubility kinetic expressed in µg/mL.

Solved cases below.
{"compound": "CCOc1ccc2[nH]c3ncccc3c(=O)c2c1", "log10 solubility kinetic": 0.57}
{"compound": "CCOC(=O)c1cc(-c2csc(Nc3c(C)cc(C)cc3C)n2)on1", "log10 solubility kinetic": -0.40}
{"compound": "CCCCCCCOc1ccc(C2(C)NC(=O)NC2=O)cc1 (stereo unspecified)", "log10 solubility kinetic": 0.97}
{"compound": "COc1ccc(NC(=O)C2CCCN(S(C)(=O)=O)C2)cc1 (stereo unspecified)", "log10 solubility kinetic": 1.54}
{"compound": "O=C(CN1CCCCCC1)Nc1ccccc1OC(F)F", "log10 solubility kinetic": 1.65}
{"compound": "Nc1c(NC=O)c(=O)n(Cc2ccccc2)c(=O)n1Cc1ccccc1", "log10 solubility kinetic": 1.72}
{"compound": "N#Cc1ccccc1OCC(=O)NC(=O)NCc1ccco1", "log10 solubility kinetic": 0.87}
{"compound": "COc1ccc(NC(=S)NCc2ccccc2)c(OC)c1", "log10 solubility kinetic": 1.59}

For O=C(Nc1ccccc1C(=O)NCCCN1CCOCC1)c1ccc(F)cc1F , what is its reported log10 solubility kinetic?
1.78

// query log10 solubility kinetic value for entry COC(=O)Cn1cc(C(=O)c2ccccc2F)c2ccccc21
1.51

// returns reported log10 solubility kinetic for input Cc1csc(=O)n1CC(=O)Nc1ccc(C(C)C)cc1
1.47

###

settings: buffer; pH 7.4; 200.0 µM
Respond with Condition met for solubility kinetic values of 30 µg/mL and above, Condition not met for values below.

Reference set, count: 5
{"compound": "CSc1ccccc1Nc1ncnc(N)n1", "discreteLabel": "Condition not met"}
{"compound": "Cn1c(Cl)c(/C=N/OC(=O)C2CC2)c2ccccc21", "discreteLabel": "Condition not met"}
{"compound": "COc1ccc(S(N)(=O)=O)cc1C(=O)OCC(=O)N1c2ccccc2NC(=O)C1(C)C", "discreteLabel": "Condition met"}
{"compound": "Cc1ccc2ccc(C)[n+](CCCS(=O)(=O)[O-])c2c1", "discreteLabel": "Condition not met"}
{"compound": "Cc1cccc(-c2nc3sc(C)cc3c(=O)o2)c1", "discreteLabel": "Condition not met"}

Does the reported solubility kinetic for NS(=O)(=O)c1ccc(NC(=O)Nc2ccc(C(F)(F)F)cc2)cc1 fall at or above the 30 µg/mL mark?
Condition not met

Quick check, solubility kinetic >= 30 µg/mL? CCCC(=O)NCc1nc2ccccc2n1CC(=O)c1ccccc1
Condition met

Threshold query (solubility kinetic >= 30 µg/mL) on N#C/C(=C\c1ccccc1)C(=O)Nc1nncs1
Condition met

Evaluate COc1ccc(OC)c2c1sc(=NC(=O)C1CCCCC1)n2C : solubility kinetic at minimum 30 µg/mL?
Condition not met

I'd appreciate it if you could say whether CN(C)C(=O)c1ccc(OCC(F)(F)F)nc1 has solubility kinetic at least equal to 30 µg/mL.
Condition met

Is it the case that Oc1ccc(-c2csc(Nc3ncccn3)n2)cc1 has solubility kinetic reaching or exceeding 30 µg/mL?
Condition not met

API: above_or_equal(metric=solubility kinetic, cutoff=30 µg/mL) for item N#CCCN(C(=O)CN1CCN(S(=O)(=O)c2ccc(Cl)s2)CC1)c1ccc(F)cc1
Condition met

Hi, just wondering whether NC(=O)C1CCN(C(=O)NC(=O)c2ccccc2)CC1 shows solubility kinetic of 30 µg/mL or higher.
Condition met

Could you verify whether the entry COc1ccc(CCn2c(C)cc(C(=O)COC(=O)c3cnccn3)c2C)cc1 shows solubility kinetic of no less than 30 µg/mL?
Condition met

###

settings: buffer; pH 7.4; 200.0 µM
recordedMetric: log10(solubility kinetic) (log10 of the value in µg/mL)
Hey, these are logged values: log10 of solubility kinetic, µg/mL being the unit before logging.

{"compound": "N#CCc1ccc(OC(=O)Nc2ccccc2)cc1", "recordedMetric": "log10(solubility kinetic)", "observedResult": 1.56}

Reported log10(solubility kinetic), compound CN(CCN1CCOCC1)Cc1nc(-c2ccc3c(c2)OCO3)no1 : ____
1.69

Which log10(solubility kinetic) reading was recorded for the compound O=C(OCc1ccc(F)cc1)c1cccnc1Cl ?
1.34

Which log10(solubility kinetic) value belongs to O=[N+]([O-])c1ccc(COP(=O)([O-])OCc2ccc([N+](=O)[O-])cc2)cc1.[Na+] ?
1.76

Would you mind telling me what log10(solubility kinetic) value was observed for COCC1CCCN(Cc2nc(-c3ccc4c(c3)OCO4)no2)C1 (configuration not stated) ?
1.64

Request the reported log10(solubility kinetic) associated with CCN(CC)c1ccc(NC(=S)NCC2CCCO2)cc1 (configuration not stated)
1.53

Fill blank: measured log10(solubility kinetic) of the compound CN1CN(C)c2ccc([N+](=O)[O-])c3cccc1c23 is ____.
0.32

###

conditions: buffer; pH 7.4; 200.0 µM
// Not satisfied strictly below 0.03 mg/mL in solubility kinetic; Satisfied otherwise

{"compound": "O=C1c2ccccc2NC(c2ccccc2)N1Cc1ccccc1 (stereo not drawn)", "discreteLabel": "Not satisfied"}
{"compound": "COc1ccc(CNc2nc3ccc(C)cc3s2)c(OC)c1OC", "discreteLabel": "Not satisfied"}
{"compound": "C=CCOc1ccc(CN(C)CC(O)COc2cccc3ccccc23)cc1 (stereo not drawn)", "discreteLabel": "Not satisfied"}
{"compound": "O=C(c1ccccc1F)N1CCCc2ccccc21", "discreteLabel": "Satisfied"}
{"compound": "CCCS(=O)(=O)N1CCCC(C(=O)c2ccccc2OC)C1 (stereo not drawn)", "discreteLabel": "Satisfied"}

Kindly determine if solubility kinetic recorded for COc1cc(C(=S)N2CCCC2)cc(OC)c1OC is above or exactly 0.03 mg/mL.
Satisfied

Does Cc1ccccc1C(=O)O/N=C(\N)c1ccc([N+](=O)[O-])cc1 have a reported solubility kinetic of at least 0.03 mg/mL?
Not satisfied

Does COc1ccc(C2C3(C#N)C(N)=NC(OC)(OC)C23C#N)cc1 (stereo not drawn) have a reported solubility kinetic of at least 0.03 mg/mL?
Satisfied

Record CCCCCCCCCC(=O)N[C@H](CN1CCOCC1)[C@H](O)c1ccccc1.Cl ; criterion: solubility kinetic no lower than 0.03 mg/mL. Met?
Satisfied

Textbook exercise: given the entry Cc1cccc(NC(=O)CSc2ncnc3sc(C)cc23)c1 , state whether its solubility kinetic is greater than or equal to 0.03 mg/mL.
Not satisfied

###

settings: buffer; pH 7.4; 200.0 µM
solubility kinetic reference

{"compound": "Cc1ncc([N+](=O)[O-])n1Cc1ccccc1F", "solubility kinetic": "> 35.3 µg/mL"}
{"compound": "COc1ccc(CN2CCN(Cc3ccc(C)cc3)C(CCO)C2)cc1OC (stereo unspecified)", "solubility kinetic": "51.8 µg/mL"}
{"compound": "CCCn1c(C(C)NS(=O)(=O)c2ccccc2)n[nH]c1=S (stereo unspecified)", "solubility kinetic": "> 49 µg/mL"}
{"compound": "COC(=O)c1cc(NC(=O)c2cccnc2)ccc1N1CCOCC1", "solubility kinetic": "> 51.2 µg/mL"}
{"compound": "CCN1CCN(c2nc3c(C)cccn3c(=O)c2C=C(C#N)C#N)CC1", "solubility kinetic": "51.1 µg/mL"}

Now, please, on to the next compound.
What value of solubility kinetic has been reported for the following compound? CCN(CC)S(=O)(=O)c1ccc(N2CCOCC2)c(NC(=O)c2ccco2)c1
> 61.1 µg/mL

###

conditions: buffer; pH 7.4; 200.0 µM
recordedMetric: solubility kinetic

{"smilesNotation": "Cn1c(SCC(=O)NCc2ccco2)nnc1C1CC1", "observedResult": "> 43.9 µg/mL"}
{"smilesNotation": "CC(=O)Nc1ccc(S(=O)(=O)N2CCNC(=O)C2)cc1", "observedResult": "> 44.6 µg/mL"}
{"smilesNotation": "COc1cccc(CNC(=O)CCSCc2ccccc2F)c1", "observedResult": "41.8 µg/mL"}

If you can, please state the reported solubility kinetic value of Cc1cc(C)c(N=Cc2c(O)c3ccccc3oc2=O)c(C)c1 .
< 0.7 µg/mL

Request the reported solubility kinetic associated with S=C(NCc1ccco1)N1CCN(c2ccccc2Cl)CC1
19.5 µg/mL

Look at this compound and give its reported solubility kinetic. CCc1ccc(S(=O)(=O)Nc2ccc(Br)cn2)cc1
18.1 µg/mL

Hello, the source for this data is PubChem BioAssay AID1996, in case you need it.
